Catalogue of compounds with associated CC50
- ASSAY REMARKS: in vitro
- SETUP CONDITIONS: human
Give a bare numeral; the unit nM is implied.

INSERT INTO measurements (compound, result_type, reading_unit, val) VALUES
  ('CC(C)n1nc(-c2ccc3oc(N)nc3c2)c2c(N)ncnc21', 'CC50', 'nM', 353);

Turning to the following compound.
Exam item: # lookup: CC50 of O=C(Nc1ccc([N+](=O)[O-])cc1Cl)c1cc(Cl)ccc1O [Niclosamide]
Marked response: 96.3

* * *

Here's a batch of compounds along with measured CC50 for VK2/E6E7 cells.

Some compounds with recorded CC50:
INSERT INTO assay_data (compound, result_type, val) VALUES
  ('O=C(Nc1ncc([N+](=O)[O-])s1)c1ccc([N+](=O)[O-])c(Cl)c1', 'CC50', '> 1 µM'),
  ('COC1(c2sc3c(N4CCOCC4)nc(-c4cnc(N)nc4)nc3c2C)COC1', 'CC50', '0.201 µM');

Turning to the following compound.
Exam item: Under VK2/E6E7 cells: CC50 value of CCNC(=O)N1CCc2cc(OC)c(OCCc3ccc(OC)c(N)c3)cc2C1c1ccc(OC)cc1C (stereo not drawn) ?
Marked response: > 1 µM
